system.name: OfChtI (Ostrinia furnacalis, UniProt Q2V6H4)
Sequence (Q2V6H4 19-407): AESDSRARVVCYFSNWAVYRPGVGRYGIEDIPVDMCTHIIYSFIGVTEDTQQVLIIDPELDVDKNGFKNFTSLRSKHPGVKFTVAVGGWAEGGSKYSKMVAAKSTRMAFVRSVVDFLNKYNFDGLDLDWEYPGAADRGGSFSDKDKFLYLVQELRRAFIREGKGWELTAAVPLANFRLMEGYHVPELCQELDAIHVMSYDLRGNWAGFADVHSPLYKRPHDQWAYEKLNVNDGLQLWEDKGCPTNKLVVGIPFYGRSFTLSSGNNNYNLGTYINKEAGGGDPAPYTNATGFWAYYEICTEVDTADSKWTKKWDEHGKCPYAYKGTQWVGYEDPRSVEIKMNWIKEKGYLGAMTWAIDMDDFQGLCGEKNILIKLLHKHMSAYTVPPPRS
readout.label: Ki (nM)

C[C@H]1O[C@H](O[C@H]2[C@H](O)[C@@H](O)[C@@H](O)[C@H](O)[C@@H]2O)[C@@H](N)C[C@@H]1NC(=N)C(=O)O: 470

* * *

system.name: HsCht (Homo sapiens, UniProt Q13231)
Construct: the catalytic domains of OfChtI from Ostrinia furnacalis (O. furnacalis), human HsCht and acidic mammalian chitinase (AMCase); made in house; host or cells: Pichia pastoris GS115 (secreted)
Sequence (Q13231 22-388 limits assumed): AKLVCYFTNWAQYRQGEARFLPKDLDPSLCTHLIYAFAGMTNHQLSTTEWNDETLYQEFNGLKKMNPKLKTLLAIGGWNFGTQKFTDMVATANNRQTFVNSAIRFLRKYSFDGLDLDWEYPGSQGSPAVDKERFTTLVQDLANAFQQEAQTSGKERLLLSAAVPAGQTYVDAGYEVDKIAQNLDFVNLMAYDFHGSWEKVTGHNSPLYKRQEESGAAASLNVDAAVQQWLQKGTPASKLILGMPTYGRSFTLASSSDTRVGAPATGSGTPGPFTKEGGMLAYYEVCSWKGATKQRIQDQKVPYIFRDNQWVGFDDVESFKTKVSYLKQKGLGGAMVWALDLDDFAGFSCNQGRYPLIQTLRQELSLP
protocol.description: Inhibitory activity determination with MU-β-(GlcNAc)2, Dixon plots
Assay type: biochemical
test.context: K i, 20 mM sodium phosphate buffer pH 6.0, 30°C
pKi: −log10 of the molar value.
readout.label: pKi

C[C@H]1O[C@H](O[C@H]2[C@H](O)[C@@H](O)[C@@H](O)[C@H](O)[C@@H]2O)[C@@H](N)C[C@@H]1NC(=N)C(=O)O: 6.60
